kon values for the binders below.
- System tested: T1, hK1 (human tissue kallikrein 1), recombinant (human, UniProt P06870 25-262)
- T1 construct: Expressed in P. pastoris from KLK1 cDNA and purified; enzymatically active; also called KLK1; Recombinant (Pichia) Kallikrein
- Test name: SPR
Your answer is read as M⁻¹ s⁻¹, so omit the unit and give the number.

In plain terms, M0139-F09 (Fab, V domains shown) VH: EVQLLESGGGLVQPGGSLRLSCAASGFTFSHYVMAWVRQAPGKGLEWVSRIGPSGGYTMYADSVKGRFTISRDNSKNTLYLQMNSLRAEDTAVYYCARVGVWYGMDVWGQGTTVTVSS VL: DIQMTQSPGTLSLSPGERATLSCRASQSVSSSYLAWYQQKPGQAPRLLIYGASSRATGIPDRFSGSGSGTDFTLTISSLQLEDFGTYFCQQSYRSPYTFGQGTKVDIKR has a documented kon of 301000

---
// kon lookup, binder = M0121-H07 (Fab, V domains shown) VH: EVQLLESGGGLVQPGGSLRLSCAASGFTFSKYYMVWVRQAPGKGLEWVSVIGPSGGWTTYADSVKGRFTISRDNSKNTLYLQMNSLRAEDTAVYYCARVDYSNYFDYWGQGTLVTVSS VL: DIQMTQSPSSLSASVGDRVTITCRASQSISRYLNWYQQKPGKAPKLLIYAASNLQSGVPSRFSGSGSGRDYTLTISSLQPEDFVTYYCQQSYSTPWTFGQGTKVEIKR , result: 168000

Consider M0107-B05 (Fab, V domains shown) VH: EVQLLESGGGLVQPGGSLRLSCAASGFTFSHYLMMWVRQAPGKGLEWVSSIRSSGGITRYADSVKGRFTISRDNSKNTLYLQMNSLRAEDTAVYYCARVGYYYGMDVWGQGTTVTVSS VL: AQSELTQPASVSGSPGQSITISCTGTSSDVGAYNYVSWYQQHPGKVPKLMIYEVSNRPSGVSNRFSGSKSGNTASLTISGLQAEDEADYYCNSYTTSATLVFGGGTKLTVLS . Its measured kon is 600000

# kon (binder: M0137-G10 (Fab, V domains shown) VH: EVQLLESGGGLVQPGGSLRLSCAASGFTFSRYVMHWVRQAPGKGLEWVSYISPSGGVTKYADSVKGRFTISRDNSKNTLYLQMNSLRAEDTAVYYCAKALYPGMGYYYGMDVWGQGTTVTVSS VL: DIQMTQSPSSLSASVGDRVTITCRTSQTVSTFLNWYQQKPGTAPKLLIYAASRLQSGVPSRFSGSGSETDFTLTISRLQPEDFATYYCQQSFTSPRTFGLGTKVEIKR ) is 272000

kon in this record for M0117-C04 (Fab, V domains shown) VH: EVQLLESGGGLVQPGGSLRLSCAASGFTFSHYLMFWVRQAPGKGLEWVSSIWPSGGNTKYADSVKGRFTISRDNSKNTLYLQMNSLRAEDTAVYYCARPAYYYAMDVWGQGTTVTVSS VL: DIQMTQSPLSLSASVGDRVTITCRASQTFNNYLNWYQQKPGKAPKLLIYAASTLQSGVPSRFSGSGSGTDFTLTISSLQPEDFATYYCQQANSFPFTFGPGTKVDIKR : 201000
